Hi, quick share: literature Ki data for UniProt:P25021, several sources combined.
quantity: Ki (µM)

[P] CC(C)(C)OC(=O)N1CCCC1CNC1CCC(c2cc(F)ccc2F)(S(=O)(=O)c2ccc(Cl)cc2)CC1 (stereo not given)
[Q] CCOC(=O)N1CCN(CCCOc2ccc(C(=O)c3ccc(C(C)(C)C)cc3)cc2)CC1
[R] O=C1C[C@H](N2CCN(CCCOc3ccc(C(=O)C4CC4)cc3)CC2)N1
[S] N/C(=N\C(=O)Nc1ccccc1)Nc1cccc(-c2csc(N)n2)c1
[T] Cc1nc(N)sc1CCCN/C(N)=N/C(=O)NCC(C)CCCc1ccccc1 (stereo not given)
Returns the items ordered by Ki, from maximum to minimum. Enter labels, ranked according to the request.
S, R, P, Q, T
(S: 372 µM, R: 26.9 µM, P: 3.79 µM, Q: 1.55 µM, T: 0.0603 µM)

[A] CCCCCC(=O)c1ccc(OCCCN2CCN(C(=O)C3CCC3)CC2)cc1
[B] CNC1CN(c2nc(N)nc3cc(C4CCCC4)cnc23)C1
[C] CCC[C@@H](N)C(=O)N1CCN(CCCOc2ccc(C(=O)C3CC3)cc2)CC1
Put the entries in order of Ki, starting with the largest number. Enter labels, ranked according to the request.
C, A, B

====

Hi, quick share: literature Ki data for UniProt:P25021, several sources combined.
quantity: Ki (µM)

compound=CCCCCC(=O)c1ccc(OCCCN2CCN(C(=O)N3CCCC3)CC2)cc1 unit_spec=µM recorded_measurement=14.8
compound="Cc1nc(N)sc1CCCN/C(N)=N/C(=O)NCC(C)CCc1ccccc1 (centres undefined)" unit_spec=µM recorded_measurement=0.0631
compound="Cc1nc(N)sc1CCCN/C(N)=N/C(=O)NC(C)c1ccc(OC(F)(F)F)cc1 (centres undefined)" unit_spec=µM recorded_measurement=0.126
compound=CCCCCC(=O)c1ccc(OCCCN2CCN(C(=O)C(C)(C)O)CC2)cc1 unit_spec=µM recorded_measurement=24.5

[a] CC(C)(C)c1ccc(-c2nc3c(N4CCN(Cc5ccc6nccnc6c5)CC4)cccc3[nH]2)cc1
[b] CCCCCC(=O)c1ccc(OCCCN2CCN(C(=O)CC)CC2)cc1
[c] CC1(C)C(/C=C/C=C/C=C2\N(CCCCCC(=O)NCCCCCCNc3c(NCCCOc4cccc(CN5CCCCC5)c4)c(=O)c3=O)c3ccccc3C2(C)C)=[N+](CCCCS(=O)(=O)[O-])c2ccccc21.O=C(O)C(F)(F)F.O=C(O)C(F)(F)F
[d] N[C@H](Cc1ccsc1)C(=O)N1CCN(CCCOc2ccc(C(=O)C3CC3)cc2)CC1
[e] COc1ccccc1N1CCN(Cc2cc(CN3CCN(C)CC3)c3cccccc2-3)CC1
Ordering: ascending Ki. Enter labels, ranked according to the request.
c, a, e, b, d

====

Hi, quick share: literature pKi data for Histamine H2 receptor (Homo sapiens, UniProt P25021), several sources combined.
pKi: −log10 of the molar value.
quantity: pKi

[a] N[C@H](Cc1cc2ccccc2s1)C(=O)N1CCN(CCCOc2ccc(C(=O)C3CC3)cc2)CC1
[b] Cn1c(=O)cnn(CCCCN2CCN(c3ccccc3OCCF)CC2)c1=O
[c] CNCC(=O)N1CCN(CCCOc2ccc(C(=O)C3CC3)cc2)CC1
[d] COc1ccccc1N1CCN(Cc2cc(CN3CCCCC3)c3cccccc2-3)CC1
Returns the items ordered by pKi, from maximum to minimum. Enter labels, ranked according to the request.
b, d, a, c
(b: 5.75, d: 5.38, a: 4.82, c: 4.10)
